System: EPLC-272H
experiment-summary: relative viability (nuclei count vs DMSO), 5 days (fraction); higher = more cells survive
test-conditions: first compound 0.005 µM
Collected relative viability values appear next to each entry.

>  <compound>
Nc1ccn([C@@H]2O[C@H](CO)[C@@H](O)[C@@H]2O)c(=O)n1 [Cytarabine] + C[C@@H](Oc1cc(-c2cnn(C3CCNCC3)c2)cnc1N)c1c(Cl)ccc(F)c1Cl [Crizotinib] (partner 1 µM)

>  <relative viability>
0.667

$$$$
>  <compound>
COc1cc2nccc(Oc3ccc(NC(=O)Nc4cc(C)on4)c(Cl)c3)c2cc1OC [Tivozanib] + CC(C)C[C@H](NC(=O)[C@H](Cc1ccccc1)NC(=O)c1cnccn1)B(O)O [Bortezomib] (partner 0.002 µM)

>  <relative viability>
0.967

$$$$
>  <compound>
COc1cc2nccc(Oc3ccc(NC(=O)Nc4cc(C)on4)c(Cl)c3)c2cc1OC [Tivozanib] + NC(=O)Nc1cc(-c2cccc(F)c2)sc1C(=O)N[C@H]1CCCNC1 [AZD7762] (partner 0.2 µM)

>  <relative viability>
0.147

$$$$
>  <compound>
COc1cc2nccc(Oc3ccc(NC(=O)Nc4cc(C)on4)c(Cl)c3)c2cc1OC [Tivozanib] + O=C(CCCCCCC(=O)Nc1ccccc1)NO [Vorinostat] (partner 1 µM)

>  <relative viability>
0.452

$$$$
>  <compound>
Nc1ccn([C@@H]2O[C@H](CO)[C@@H](O)[C@@H]2O)c(=O)n1 [Cytarabine] + Nc1nc2[nH]cc(CCc3ccc(C(=O)N[C@@H](CCC(=O)O)C(=O)O)cc3)c2c(=O)[nH]1 [Pemetrexed] (partner 0.2 µM)

>  <relative viability>
0.232

$$$$

---

Tested on: NCI-H2126
experiment-summary: relative viability (nuclei count vs DMSO), 5 days (fraction); higher = more cells survive
test-conditions: first compound 5 µM
Lab note: compare relative viability with 0.5, writing yes (1) if less and no (0) if equal or more.

>  <compound>
O=C(O)CCCCC(CCSCc1ccccc1)SCc1ccccc1 (stereo unspecified) [CPI-613] + CS(=O)(=O)N1CCN(Cc2cc3nc(-c4cccc5[nH]ncc45)nc(N4CCOCC4)c3s2)CC1 [Pictilisib] (partner 1 µM)

>  <label-value>
no (0)

$$$$
>  <compound>
O=C(O)CCCCC(CCSCc1ccccc1)SCc1ccccc1 (stereo unspecified) [CPI-613] + N=C(N)NC(=N)NCCc1ccccc1 [Phenformin] (partner 250 µM)

>  <label-value>
no (0)

$$$$
>  <compound>
O=C(O)CCCCC(CCSCc1ccccc1)SCc1ccccc1 (stereo unspecified) [CPI-613] + CC(=O)c1c(C)c2cnc(Nc3ccc(N4CCNCC4)cn3)nc2n(C2CCCC2)c1=O [Palbociclib] (partner 0.5 µM)

>  <label-value>
yes (1)

$$$$
>  <compound>
O=C(O)CCCCC(CCSCc1ccccc1)SCc1ccccc1 (stereo unspecified) [CPI-613] + CS(=O)(=O)CCNCc1ccc(-c2ccc3ncnc(Nc4ccc(OCc5cccc(F)c5)c(Cl)c4)c3c2)o1 [Lapatinib] (partner 2 µM)

>  <label-value>
no (0)

$$$$
>  <compound>
O=C(O)CCCCC(CCSCc1ccccc1)SCc1ccccc1 (stereo unspecified) [CPI-613] + O=C(CCCCCCC(=O)Nc1ccccc1)NO [Vorinostat] (partner 1 µM)

>  <label-value>
no (0)

$$$$
>  <compound>
O=C(O)CCCCC(CCSCc1ccccc1)SCc1ccccc1 (stereo unspecified) [CPI-613] + Nc1nc2[nH]cc(CCc3ccc(C(=O)N[C@@H](CCC(=O)O)C(=O)O)cc3)c2c(=O)[nH]1 [Pemetrexed] (partner 0.2 µM)

>  <label-value>
no (0)

$$$$

// provenance: the supplement of paper PMC10307832
